These entries and their values trace back to ChEMBL document CHEMBL5241053.

assay.summary: Selectivity index, ratio of IC50 for antiproliferative activity against human A549 cells to IC50 for antiproliferative activity against human MDA-MB-231 cells
Type: functional
# label = T if Ratio IC50 < 3 else F

>>> group_label("COc1ccccc1/C=C/C(=O)NCCNC(=O)[C@H]1CC[C@H]2[C@@H]3CCC4=CC(=O)C=C[C@]4(C)[C@H]3CC[C@]12C")
"F"
>>> group_label("C[C@]12CC[C@H]3[C@@H](CCC4=CC(=O)CC[C@@]43C)[C@@H]1CC[C@@H]2C(=O)NCCNC(=O)/C=C/c1ccc(Cl)cc1")
"F"
>>> group_label("C[C@]12CC[C@H]3[C@@H](CCC4=CC(=O)CC[C@@]43C)[C@@H]1CC[C@@H]2C(=O)NCCNC(=O)/C=C/c1cccc([N+](=O)[O-])c1")
"T"
>>> group_label("C[C@]12CC[C@H]3[C@@H](CCC4=CC(=O)C=C[C@@]43C)[C@@H]1CC[C@@H]2C(=O)NCCNC(=O)/C=C/c1ccc(C(F)(F)F)cc1")
"F"
>>> group_label("O=c1[nH]cc(F)c(=O)[nH]1")
"T"

====

# maps each entry to its pIC50
Test system: A549
assay.summary: Antiproliferative activity against human A549 cells assessed as cell growth inhibition incubated for 4 hrs by MTT assay
Type: functional, cell-based
condition.description: A549, 4 h
pIC50: −log10 of the molar value.
quantity.kind: pIC50

>>> endpoint_result("COc1ccccc1/C=C/C(=O)NCCNC(=O)[C@H]1CC[C@H]2[C@@H]3CCC4=CC(=O)C=C[C@]4(C)[C@H]3CC[C@]12C")
4.52
>>> endpoint_result("COc1ccc(/C=C/C(=O)NCCNC(=O)[C@H]2CC[C@H]3[C@@H]4CCC5=CC(=O)CC[C@]5(C)[C@H]4CC[C@]23C)cc1OC")
4.45

====

System: A549
assay.summary: Antiproliferative activity against human A549 cells assessed as cell growth inhibition incubated for 4 hrs by MTT assay
Assay type: functional, cell-based
condition.description: A549, 4 h
Each entry below carries its recorded IC50.
quantity.kind: IC50

>>> endpoint_result("C[C@]12CC[C@H]3[C@@H](CCC4=CC(=O)C=C[C@@]43C)[C@@H]1CC[C@@H]2C(=O)NCCNC(=O)/C=C/c1ccccc1")
"26.9 µM"
>>> endpoint_result("C[C@]12CC[C@H]3[C@@H](CCC4=CC(=O)C=C[C@@]43C)[C@@H]1CC[C@@H]2C(=O)NCCNC(=O)/C=C/c1ccc([N+](=O)[O-])cc1")
"> 40 µM"
>>> endpoint_result("C[C@]12CC[C@H]3[C@@H](CCC4=CC(=O)CC[C@@]43C)[C@@H]1CC[C@@H]2C(=O)NCCNC(=O)/C=C/c1ccc([N+](=O)[O-])cc1")
"> 40 µM"
>>> endpoint_result("COc1cc(/C=C/C(=O)NCCNC(=O)[C@H]2CC[C@H]3[C@@H]4CCC5=CC(=O)CC[C@]5(C)[C@H]4CC[C@]23C)cc(OC)c1OC")
"> 40 µM"
>>> endpoint_result("C[C@]12CC[C@H]3[C@@H](CCC4=CC(=O)C=C[C@@]43C)[C@@H]1CC[C@@H]2C(=O)NCCNC(=O)/C=C/c1cccc([N+](=O)[O-])c1")
"34.2 µM"
>>> endpoint_result("COc1ccc(/C=C/C(=O)NCCNC(=O)[C@H]2CC[C@H]3[C@@H]4CCC5=CC(=O)CC[C@]5(C)[C@H]4CC[C@]23C)cc1")
"> 40 µM"

====

assay.summary: Selectivity index, ratio of IC50 for antiproliferative activity against human A549 cells to IC50 for antiproliferative activity against human MDA-MB-231 cells
Type: functional
quantity.kind: Ratio IC50

>>> endpoint_result("COc1ccc(/C=C/C(=O)NCCNC(=O)[C@H]2CC[C@H]3[C@@H]4CCC5=CC(=O)C=C[C@]5(C)[C@H]4CC[C@]23C)cc1OC")
">7"
>>> endpoint_result("C[C@]12CC[C@H]3[C@@H](CCC4=CC(=O)CC[C@@]43C)[C@@H]1CC[C@@H]2C(=O)NCCNC(=O)/C=C/c1ccc(C(F)(F)F)cc1")
">4.3"
>>> endpoint_result("COc1ccc(/C=C/C(=O)NCCNC(=O)[C@H]2CC[C@H]3[C@@H]4CCC5=CC(=O)CC[C@]5(C)[C@H]4CC[C@]23C)cc1OC")
2.3

====

Tested on: A549
assay.summary: Antiproliferative activity against human A549 cells assessed as cell growth inhibition incubated for 4 hrs by MTT assay
Type: functional, cell-based
condition.description: A549, 4 h
pIC50: −log10 of the molar value.
Catalogue of molecules with associated pIC50
quantity.kind: pIC50

>>> endpoint_result("C[C@]12CC[C@H]3[C@@H](CCC4=CC(=O)C=C[C@@]43C)[C@@H]1CC[C@@H]2C(=O)NCCNC(=O)/C=C/c1ccc(Cl)cc1")
4.41
>>> endpoint_result("COc1cc(/C=C/C(=O)NCCNC(=O)[C@H]2CC[C@H]3[C@@H]4CCC5=CC(=O)C=C[C@]5(C)[C@H]4CC[C@]23C)cc(OC)c1OC")
4.44
>>> endpoint_result("C[C@]12CC[C@H]3[C@@H](CCC4=CC(=O)CC[C@@]43C)[C@@H]1CC[C@@H]2C(=O)NCCNC(=O)/C=C/c1cccc([N+](=O)[O-])c1")
4.75
>>> endpoint_result("COc1ccc(/C=C/C(=O)NCCNC(=O)[C@H]2CC[C@H]3[C@@H]4CCC5=CC(=O)C=C[C@]5(C)[C@H]4CC[C@]23C)cc1")
4.53
>>> endpoint_result("C[C@]12CC[C@H]3[C@@H](CCC4=CC(=O)CC[C@@]43C)[C@@H]1CC[C@@H]2C(=O)NCCNC(=O)/C=C/c1ccc(Cl)cc1")
4.45

====

Test system: A549
assay.summary: Antiproliferative activity against human A549 cells assessed as cell growth inhibition incubated for 4 hrs by MTT assay
Assay type: functional, cell-based
condition.description: A549, 4 h
quantity.kind: IC50 (µM)

>>> endpoint_result("C[C@]12CC[C@H]3[C@@H](CCC4=CC(=O)C=C[C@@]43C)[C@@H]1CC[C@@H]2C(=O)NCCNC(=O)/C=C/c1ccc(C(F)(F)F)cc1")
38.1
>>> endpoint_result("O=c1[nH]cc(F)c(=O)[nH]1")
14.5
>>> endpoint_result("COc1ccccc1/C=C/C(=O)NCCNC(=O)[C@H]1CC[C@H]2[C@@H]3CCC4=CC(=O)CC[C@]4(C)[C@H]3CC[C@]12C")
30.9
>>> endpoint_result("O=C(/C=C/c1ccccc1)c1ccccc1")
69.2
>>> endpoint_result("C[C@]12CC[C@H]3[C@@H](CCC4=CC(=O)CC[C@@]43C)[C@@H]1CC[C@@H]2C(=O)NCCNC(=O)/C=C/c1ccccc1")
27.3
